Catalogue of binders with associated koff
testedOn: T1, TPP-2305 (hTNFRSF12Aaa28-80) (Human, UniProt Q9NP84 28-80)
T1 construct: monomeric extracellular domain, bought; also called purified recombinant human TWEAKR protein; soluble monomeric TWEAKR
assayDetails: SPR (Biacore T100), IgG captured, TPP-2305 injected, 1:1 model
Could you give me the number in s⁻¹? Just the number is fine.

binder: TPP-2148 (antibody, human IgG1, kappa, V domains shown, Human IgG1) VH: EVQLLESGGGLVQPGGSLRLSCAASGFTFSPYPMMWVRQAPGKGLEWVSYISPSGGKTHYADSVKGRFTISRDNSKNTLYLQMNSLRAEDTAVYYCARGGDTYFDYFDYWGQGTLVTVSS VL: DIQMTQSPATLSASVGDRVTITCRASQSISSYLNWYQQKPGKAPKLLIYQASSLQSGVPSRFSGSGSGTDFTLTISSLQPEDFATYYCQQSYTSPFITFGPGTKVEIKR
koff / s⁻¹: 0.13

Moving on to another binder below.
Query block: Using the record for 136.1(TPP-2194) (antibody, mouse IgG2a, kappa, V domains shown, Murine IgG2a; variable domains from WO2009/020933 with constant region added) VH: EVKLEESGGGLVQPGGSMKLSCVASGFTFNNYWMSWVRQSPEKGLEWLAEIRLKSDNYATHYAESVKGKFTISRDDSKSRLYLQMNNLRAENTGIYYCTGGFADYFDYWGQGTTLTVSS VL: DIVLTQSPASLTVSLGQRATISCRASQSVSTSSYSYMQWYQQRPGQPPKLLIKYATNLDSGVPARFSGSGSGTDFTLNIHPVEEEDAATYYCQHSWEIPYTFGGGTKLEIKR , report its koff.
Result block: 0.0324
